molecular target: Histone-lysine N-methyltransferase EHMT2 (Homo sapiens, UniProt Q96KQ7); experiment: Inhibition of recombinant G9a catalytic SET domain (913 to 1193 residues) (unknown origin) expressed in Escherichia coli BL21 (DE3) codon plus RIL assessed as inhibition of methylation activity using biotin-labeled H3 (1 to 25 residues) as substrate and [3H]-SAM after 2 hrs by scintillation proximity assay
Sequence (Q96KQ7 whole entry, the tested form may be a part): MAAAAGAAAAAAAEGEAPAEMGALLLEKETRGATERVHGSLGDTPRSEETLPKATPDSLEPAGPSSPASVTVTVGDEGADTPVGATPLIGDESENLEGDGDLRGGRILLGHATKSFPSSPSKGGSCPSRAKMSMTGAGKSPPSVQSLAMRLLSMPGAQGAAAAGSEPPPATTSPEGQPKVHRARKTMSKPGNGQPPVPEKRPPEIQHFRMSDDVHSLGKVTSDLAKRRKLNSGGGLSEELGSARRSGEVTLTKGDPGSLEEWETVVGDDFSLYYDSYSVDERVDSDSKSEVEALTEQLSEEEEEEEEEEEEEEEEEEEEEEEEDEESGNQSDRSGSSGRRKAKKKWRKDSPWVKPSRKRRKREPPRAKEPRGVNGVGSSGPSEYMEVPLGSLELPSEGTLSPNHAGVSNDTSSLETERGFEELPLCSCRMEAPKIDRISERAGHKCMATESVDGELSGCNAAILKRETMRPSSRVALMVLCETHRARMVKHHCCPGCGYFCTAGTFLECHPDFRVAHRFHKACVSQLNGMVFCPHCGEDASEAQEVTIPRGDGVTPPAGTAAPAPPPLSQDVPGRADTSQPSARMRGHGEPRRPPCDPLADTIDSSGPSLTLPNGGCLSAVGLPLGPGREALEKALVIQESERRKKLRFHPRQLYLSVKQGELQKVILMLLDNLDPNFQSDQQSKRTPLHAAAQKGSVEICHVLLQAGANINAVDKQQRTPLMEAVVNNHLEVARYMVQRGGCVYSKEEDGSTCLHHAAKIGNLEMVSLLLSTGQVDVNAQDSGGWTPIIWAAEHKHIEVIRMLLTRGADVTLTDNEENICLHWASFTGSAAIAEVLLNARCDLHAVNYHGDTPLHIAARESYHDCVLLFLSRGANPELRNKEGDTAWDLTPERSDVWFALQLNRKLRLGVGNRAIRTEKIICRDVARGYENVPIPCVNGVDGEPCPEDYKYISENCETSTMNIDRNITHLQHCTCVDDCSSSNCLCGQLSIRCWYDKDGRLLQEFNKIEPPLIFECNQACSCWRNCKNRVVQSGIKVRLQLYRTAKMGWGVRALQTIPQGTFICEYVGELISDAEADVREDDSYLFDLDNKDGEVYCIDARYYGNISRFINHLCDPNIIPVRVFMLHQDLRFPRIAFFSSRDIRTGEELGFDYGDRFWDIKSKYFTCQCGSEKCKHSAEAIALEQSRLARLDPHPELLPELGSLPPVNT
endpoint.label: IC50 (nM)

compound	IC50 [nM]
CCCCN(C)c1nc(NC2CCN(C)CC2)c2cc(OC)c(OC)cc2n1	407

1: CCCCCNc1nc(NC2CCN(C)CC2)c2cc(OC)c(OC)cc2n1
2: CCCN1CCC(Nc2nc(N3CCOCC3)nc3cc(OC)c(OC)cc23)CC1
[ask] Consider entries 1 and 2 . Which has the numerically lower IC50? Pick one; state its label.
[reply] 2
(2: 224 nM, 1: 341 nM)

###

IC50 by entry:
biological target: Histone-lysine N-methyltransferase EHMT1 (Homo sapiens, UniProt Q9H9B1); experiment: Inhibition of recombinant GLP catalytic SET domain (982 to 1266 residues) (unknown origin) expressed in Escherichia coli BL21 (DE3) codon plus RIL assessed as inhibition of methylation activity using biotin-labeled H3 (1 to 25 residues) as substrate and [3H]-SAM after 2 hrs by scintillation proximity assay
Sequence (Q9H9B1 whole entry, the tested form may be a part): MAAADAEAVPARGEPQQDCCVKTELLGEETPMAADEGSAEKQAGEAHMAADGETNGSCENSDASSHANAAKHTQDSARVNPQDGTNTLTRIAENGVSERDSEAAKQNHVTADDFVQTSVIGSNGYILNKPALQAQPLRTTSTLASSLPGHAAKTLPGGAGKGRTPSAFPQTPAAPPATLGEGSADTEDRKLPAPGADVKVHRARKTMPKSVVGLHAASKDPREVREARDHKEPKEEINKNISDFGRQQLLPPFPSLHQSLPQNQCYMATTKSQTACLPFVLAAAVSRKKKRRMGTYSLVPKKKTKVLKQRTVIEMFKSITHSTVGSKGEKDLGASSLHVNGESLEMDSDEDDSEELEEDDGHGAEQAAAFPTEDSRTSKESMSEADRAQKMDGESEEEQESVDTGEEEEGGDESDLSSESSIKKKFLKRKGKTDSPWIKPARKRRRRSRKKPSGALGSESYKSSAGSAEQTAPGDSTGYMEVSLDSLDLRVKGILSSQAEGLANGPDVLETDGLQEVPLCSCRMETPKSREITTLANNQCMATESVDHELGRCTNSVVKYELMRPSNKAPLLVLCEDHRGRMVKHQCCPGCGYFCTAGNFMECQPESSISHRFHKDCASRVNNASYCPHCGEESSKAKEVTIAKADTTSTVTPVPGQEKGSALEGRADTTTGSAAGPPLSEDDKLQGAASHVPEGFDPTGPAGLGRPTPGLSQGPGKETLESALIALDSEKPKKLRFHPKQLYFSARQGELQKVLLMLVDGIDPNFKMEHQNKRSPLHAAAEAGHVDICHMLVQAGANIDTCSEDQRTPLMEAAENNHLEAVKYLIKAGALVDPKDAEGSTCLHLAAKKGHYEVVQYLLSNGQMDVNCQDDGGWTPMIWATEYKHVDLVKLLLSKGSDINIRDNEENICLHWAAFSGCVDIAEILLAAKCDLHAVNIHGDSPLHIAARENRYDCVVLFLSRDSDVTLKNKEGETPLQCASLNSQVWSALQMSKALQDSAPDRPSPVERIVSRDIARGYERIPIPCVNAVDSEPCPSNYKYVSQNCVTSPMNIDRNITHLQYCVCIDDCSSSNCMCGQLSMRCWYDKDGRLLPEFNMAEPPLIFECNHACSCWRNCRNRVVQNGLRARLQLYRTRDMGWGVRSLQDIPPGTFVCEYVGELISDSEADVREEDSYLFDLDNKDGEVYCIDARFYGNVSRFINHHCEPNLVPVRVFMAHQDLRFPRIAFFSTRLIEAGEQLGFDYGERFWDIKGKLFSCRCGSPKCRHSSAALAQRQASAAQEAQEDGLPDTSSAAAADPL

compound	IC50
CCOc1cc2nc(N3CCOCC3)nc(NC3CCN(C)CC3)c2cc1OC	> 1 µM
CCOc1cc2c(NC3CCN(C)CC3)nc(N3CCOCC3)nc2cc1OC	> 5 µM

We next turn to a different molecule, shown below.
Looking up COc1cc2nc(N3CCOCC3)nc(NC3CCN(C)CC3)c2cc1OC(C)C , I see its IC50 listed as > 5 µM

###

target: Histone-lysine N-methyltransferase EHMT2 (Homo sapiens, UniProt Q96KQ7); assay: Inhibition of recombinant G9a catalytic SET domain (913 to 1193 residues) (unknown origin) expressed in Escherichia coli BL21 (DE3) codon plus RIL assessed as inhibition of methylation activity using biotin-labeled H3 (1 to 25 residues) as substrate and [3H]-SAM after 2 hrs by scintillation proximity assay
endpoint.label: IC50

compound	IC50
COc1cc2nc(N3CCOCC3)nc(NC3CCN(C)CC3)c2cc1OC(C)C	> 5 µM
COc1cc2nc(C3CCCCC3)nc(NC3CCN(C)CC3)c2cc1OC	0.438 µM

response.value for CCOc1cc2nc(N3CCOCC3)nc(NC3CCN(C)CC3)c2cc1OC (field: IC50) = > 5 µM

Lab book: IC50 of COc1cc2c(NC3CCN(C)CC3)nc(N3CCOCC3)nc2cc1F noted as > 5 µM
